From: patent US8513220B2

ASSAYED_SYSTEM: human S1P1 receptor (Homo sapiens)
Construct: membranes used
Sequence (P21453 whole entry): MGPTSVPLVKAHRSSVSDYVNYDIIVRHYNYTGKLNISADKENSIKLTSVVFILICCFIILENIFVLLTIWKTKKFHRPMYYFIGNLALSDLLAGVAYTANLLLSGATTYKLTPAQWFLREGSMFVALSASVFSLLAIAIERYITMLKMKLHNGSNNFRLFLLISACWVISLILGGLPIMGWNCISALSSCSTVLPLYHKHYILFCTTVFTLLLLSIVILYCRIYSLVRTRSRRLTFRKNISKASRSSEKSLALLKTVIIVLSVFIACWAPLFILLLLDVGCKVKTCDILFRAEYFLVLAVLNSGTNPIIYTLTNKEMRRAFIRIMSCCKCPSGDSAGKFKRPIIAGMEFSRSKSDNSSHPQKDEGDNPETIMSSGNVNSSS
TEST_DETAILS: GTP γ35S binding assay for S1P1 activity
ASSAY_CONDITIONS: S1P1 receptor, membranes, compounds 0.08 to 5,000 nM; read-out: GTPγ^35S EC50

MOLECULE: CCCCCCc1ccc(-c2ccc(CNCCCP(=O)(O)O)nc2-c2ccccc2)cc1CCC [Compound 16]
UNIT_INFO: nM
EC50: 29.6

MOLECULE: CCCCCCc1ccc(-c2ccc(CNCCCP(=O)(O)O)nc2-c2cocn2)cc1 [Compound 7]
UNIT_INFO: nM
EC50: 0.87

MOLECULE: CCCCCOc1ccc(-c2ccc(CNCCCP(=O)(O)O)nc2-c2ccccc2)cc1 [Compound 19]
UNIT_INFO: nM
EC50: 358
